experiment: chemical genetic growth profiling, strain panel (AID 1159580);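 note: tested at 20 µM; growth read once vehicle control cultures reached saturation at 30 °C; lower values mean less growth of the strain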; conditions: S. cerevisiae deletion strains, growth OD, locus YHR079C, strain IRE1 (second series)
About 2,000 (36%) of roughly 5,500 compounds were called active. Not shown: some 18% with an inconclusive outcome. Cut-off read from the data, not from the text of the source: active = normalized growth mostly below about 0.91 (no sharp cut-off); inconclusive = no clear call, values can overlap the other calls; inactive = mostly above about 0.92. This is one part of the list.
Pick one and only one: T (active), F (inactive)

Q: Please indicate how the test categorized `CC(=O)NS(=O)(=O)c1ccc(N)cc1` .
Result: F

Q: Please indicate how the test categorized `O=C(/C=C/c1ccc(O)cc1)c1ccc(O)cc1O` .
Result: F

Q: Please indicate how the test categorized `O=C(O)c1cc(O)c2c(c1)C(=O)c1cc(O)cc(O)c1C2=O` .
Result: F

Q: Please indicate how the test categorized NC(Cc1ccc(Cl)cc1)C(=O)O (centres undefined) .
Result: F

Q: Please indicate how the test categorized `CCCN(CCC)c1c([N+](=O)[O-])cc(C(F)(F)F)cc1[N+](=O)[O-]` .
Result: F

Q: Please indicate how the test categorized COc1ccccc1OCC(O)COC(N)=O (centres undefined) .
Result: F

Q: Please indicate how the test categorized Cc1ccc(O)c(C(CCN(C(C)C)C(C)C)c2ccccc2)c1 (centres undefined) .
Result: F

Q: Please indicate how the test categorized `CC(=O)Nc1c(I)cc(I)c(C(=O)O)c1I` .
Result: F

Q: Please indicate how the test categorized COC1=CC23CCCN2CCc2cc4c(cc2C3C1O)OCO4 (centres undefined) .
Result: F

Q: Please indicate how the test categorized `CCCCN(CC)c1c([N+](=O)[O-])cc(C(F)(F)F)cc1[N+](=O)[O-]` .
Result: F

Q: Please indicate how the test categorized COc1cc2c(cc1OC)C(C)NCC2 (centres undefined) .
Result: F

Q: Please indicate how the test categorized `O=C1NS(=O)(=O)c2ccccc21` .
Result: F

Q: Please indicate how the test categorized CC(=O)OC[C@@]1(O)C[C@@]23CCC4c5ccoc5CC[C@]4(C)C2CC[C@@H]1C3 (some centres undefined) .
Result: T

Q: Please indicate how the test categorized `O=C(/C=C/c1ccccc1)c1c(O)cc(O)cc1O` .
Result: F

Q: Please indicate how the test categorized O=C(c1ccccc1)c1ccc2n1CCC2C(=O)O (centres undefined) .
Result: F

Q: Please indicate how the test categorized COC(=O)C[C@H]1C(C)(C)[C@@H](OC(C)=O)[C@@H]2CC3=C4CC(=O)O[C@@H](c5ccoc5)[C@]4(C)CCC3[C@@]1(C)C2=O (some centres undefined) .
Result: F

Q: Please indicate how the test categorized `O[C@H]1[C@H](O)[C@@H](O)C2OC[C@H]1O2` .
Result: F

Q: Please indicate how the test categorized `O=C1C=CC(=O)c2c(O)cccc21` .
Result: F

Q: Please indicate how the test categorized C=C(C)C1Cc2c(ccc(C(=O)O)c2O)O1 (centres undefined) .
Result: F

Q: Please indicate how the test categorized `O=C(O)CCC(=O)OC[C@@H](NC(=O)C(Cl)Cl)[C@H](O)c1ccc([N+](=O)[O-])cc1` .
Result: F

Q: Please indicate how the test categorized `COc1cc(Cc2cnc(N)nc2N)cc(OC)c1OC` .
Result: F

Q: Please indicate how the test categorized `O=c1c(O)cccc2cc(O)c(O)c(O)c12` .
Result: T

Q: Please indicate how the test categorized `CN(C)CCC[C@@]1(c2ccc(F)cc2)OCc2cc(C#N)ccc21` .
Result: F

Q: Please indicate how the test categorized CCCC(=O)Nc1ccc(OCC(O)CNC(C)C)c(C(C)=O)c1 (centres undefined) .
Result: F

Q: Please indicate how the test categorized `O=C(O)c1cccnc1C(=O)O` .
Result: F

Q: Please indicate how the test categorized `O=C1c2cccc(O)c2C(=O)c2c(O)cccc21` .
Result: T

Q: Please indicate how the test categorized `COc1cc(O)c2c(c1)C(=O)c1cc(C)cc(O)c1C2=O` .
Result: F

Q: Please indicate how the test categorized `CCCc1ncc(C[n+]2ccccc2C)c(N)n1` .
Result: F

Q: Please indicate how the test categorized `O=C(N[C@@H](CO)[C@H](O)c1ccc([N+](=O)[O-])cc1)C(Cl)Cl` .
Result: F

Q: Please indicate how the test categorized CC(C)c1cc2c(c(O)c1O)[C@@]1(C(=O)O)CCCC(C)(C)C1CC2 (some centres undefined) .
Result: F

Q: Please indicate how the test categorized `Cc1cc(O)c2c(c1)C(=O)c1cc(O)cc(O)c1C2=O` .
Result: T

Q: Please indicate how the test categorized `CC(C)=CCC/C(C)=C/CO` .
Result: F

Q: Please indicate how the test categorized `CC[C@H]1OC(=O)[C@H](C)[C@@H](O[C@H]2C[C@@](C)(OC)[C@@H](O)[C@H](C)O2)[C@H](C)[C@@H](O[C@@H]2O[C@H](C)C[C@H](N(C)C)[C@H]2O)[C@](C)(O)C[C@@H](C)/C(=N/OCOCCOC)[C@H](C)[C@@H](O)[C@]1(C)O` .
Result: F

Q: Please indicate how the test categorized `COc1cc2cccc(OC)c(=O)c2c(OC)c1OC` .
Result: F

Measured values drawn from PubChem BioAssay AID1159580 for this set.
